Hello, the source for this data is the supplement of paper PMC9732359, in case you need it.

- methodDescription: protein stability index of a GFP-peptide fusion (yeast GPS) (PSI 1-4); higher = more stable; sorted into four equal gates, so the index is relative within each strain
- statedConditions: san1∆
Decision: protein stability index compared against 3; not below it gives y, below it gives n.

Here's what some known entries look like.
In [3]: df
Out[3]:
                       querysequence  answerlabel
0           TLIIDQVRKDLGNVIVP [NUT1]            y
1  RDLGDDRVFNVPTIGVV [YJR042W/NUP85]            y
2         KHGAVHLSTYLKVYKVG [RPL21A]            n
3          PLVIRRYLPDGSFEDWS [RPO26]            y

// query Given VVERHLEDGDVVLFNRQ [RPO31] , state whether its protein stability index is at least 3.
// result y

// query Given DLMDEELRKHAQKRVSN [SKI6] , state whether its protein stability index is at least 3.
// result n

// query Given DKDVKAKYETSILEHSG [FAS2] , state whether its protein stability index is at least 3.
// result y

// query Given QNKEIKAERVEDQKVVD [RPL6A] , state whether its protein stability index is at least 3.
// result y
